system name: delF508-CFTR (Homo sapiens, UniProt P13569, DEL508-508)
Construct: endogenous in cells; host or cells: CFBE41o- human CF bronchial epithelial cells (delF508 homozygous)
Sequence (P13569 with tags, fused parts or gaps DEL508-508): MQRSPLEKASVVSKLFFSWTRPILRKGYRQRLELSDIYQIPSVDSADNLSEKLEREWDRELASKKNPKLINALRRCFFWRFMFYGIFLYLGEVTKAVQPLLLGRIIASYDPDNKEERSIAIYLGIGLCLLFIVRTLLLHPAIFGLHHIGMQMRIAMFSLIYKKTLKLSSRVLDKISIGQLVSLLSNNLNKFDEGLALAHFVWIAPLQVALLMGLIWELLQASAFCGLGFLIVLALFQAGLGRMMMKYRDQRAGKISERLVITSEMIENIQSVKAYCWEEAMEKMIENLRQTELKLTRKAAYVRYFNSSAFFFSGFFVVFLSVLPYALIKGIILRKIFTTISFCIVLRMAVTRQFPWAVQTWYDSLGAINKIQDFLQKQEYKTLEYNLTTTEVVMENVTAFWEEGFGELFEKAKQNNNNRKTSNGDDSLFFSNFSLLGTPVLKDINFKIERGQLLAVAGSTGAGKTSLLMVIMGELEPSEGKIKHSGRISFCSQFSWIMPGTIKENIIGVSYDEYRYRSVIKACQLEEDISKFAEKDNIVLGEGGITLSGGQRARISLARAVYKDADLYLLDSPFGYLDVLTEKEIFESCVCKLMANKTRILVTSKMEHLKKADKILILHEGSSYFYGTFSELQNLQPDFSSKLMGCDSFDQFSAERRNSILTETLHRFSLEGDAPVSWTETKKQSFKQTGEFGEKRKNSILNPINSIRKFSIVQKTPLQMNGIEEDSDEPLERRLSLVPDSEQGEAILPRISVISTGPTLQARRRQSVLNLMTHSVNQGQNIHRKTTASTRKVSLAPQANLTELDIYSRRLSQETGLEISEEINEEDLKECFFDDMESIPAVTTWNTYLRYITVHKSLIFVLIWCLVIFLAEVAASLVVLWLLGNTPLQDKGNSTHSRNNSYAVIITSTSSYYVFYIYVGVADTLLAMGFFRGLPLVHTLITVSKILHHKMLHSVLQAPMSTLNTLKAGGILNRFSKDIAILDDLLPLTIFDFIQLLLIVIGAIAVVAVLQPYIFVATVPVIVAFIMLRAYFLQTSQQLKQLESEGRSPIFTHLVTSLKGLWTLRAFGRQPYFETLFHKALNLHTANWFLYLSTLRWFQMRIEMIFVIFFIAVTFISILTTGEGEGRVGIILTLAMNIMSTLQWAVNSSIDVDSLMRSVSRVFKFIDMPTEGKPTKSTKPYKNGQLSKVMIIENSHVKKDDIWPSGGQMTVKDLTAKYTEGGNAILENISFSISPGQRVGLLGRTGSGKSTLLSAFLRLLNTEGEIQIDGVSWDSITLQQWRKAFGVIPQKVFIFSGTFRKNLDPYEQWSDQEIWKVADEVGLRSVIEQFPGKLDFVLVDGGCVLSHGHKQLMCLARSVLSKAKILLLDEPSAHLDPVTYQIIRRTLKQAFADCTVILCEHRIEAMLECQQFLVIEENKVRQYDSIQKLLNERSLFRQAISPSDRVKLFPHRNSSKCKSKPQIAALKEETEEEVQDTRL
experimental protocol: SPQ halide-sensitive fluorescence dye assay for rescue of halide efflux (8-point concentration-response)
Type: cell-based
conditions used: CFBE41o- cells, 48 h; read-out: SPQ EC50
reported endpoint: EC50 (µM)

Worked examples, 5 compounds total:
| compound | numeric result |
| --- | --- |
| Cc1cn2c3c(=O)n(C)c(=O)n(C)c3nc2n1-c1cccc(O)c1 [Compound A-2] | 8.9 |
| CCn1c(=O)c2c(nc3n(-c4cccc(Cl)c4C)c(C)cn23)n(C)c1=O [Compound I-23] | 10.5 |
| CCCn1c(=O)c2c(nc3n(Cc4ccccc4)c(C)c(C)n23)n(C)c1=O [Compound I-34] | 4.6 |
| C=CCn1c(=O)c2c(nc3n(CC(C)C)c(C)c(C)n23)n(C)c1=O [Compound I-38] | 7.8 |
| C=CCn1c(Oc2ccc(Br)cc2)nc2c1c(=O)n(C)c(=O)n2C [Compound III-1] | 11.1 |

[a] COc1cccc(CN2CCN(c3nc4c(=O)n(C)c(=O)n(C)c4[nH]3)CC2)c1 [Compound B-7.10]
[b] CC1=NNc2nc3c(c(=O)n(Cc4cccc(C)c4)c(=O)n3C)n2C1C (centres unmarked) [Compound V-11]
Compare the recorded EC50 of a and b ; state which is larger. Record your answer as the label of the chosen record.
b
(b: 11.3 µM, a: 7.1 µM)
